TARGET: Poly [ADP-ribose] polymerase 1 (Rattus norvegicus)
Sequence (P27008 whole entry): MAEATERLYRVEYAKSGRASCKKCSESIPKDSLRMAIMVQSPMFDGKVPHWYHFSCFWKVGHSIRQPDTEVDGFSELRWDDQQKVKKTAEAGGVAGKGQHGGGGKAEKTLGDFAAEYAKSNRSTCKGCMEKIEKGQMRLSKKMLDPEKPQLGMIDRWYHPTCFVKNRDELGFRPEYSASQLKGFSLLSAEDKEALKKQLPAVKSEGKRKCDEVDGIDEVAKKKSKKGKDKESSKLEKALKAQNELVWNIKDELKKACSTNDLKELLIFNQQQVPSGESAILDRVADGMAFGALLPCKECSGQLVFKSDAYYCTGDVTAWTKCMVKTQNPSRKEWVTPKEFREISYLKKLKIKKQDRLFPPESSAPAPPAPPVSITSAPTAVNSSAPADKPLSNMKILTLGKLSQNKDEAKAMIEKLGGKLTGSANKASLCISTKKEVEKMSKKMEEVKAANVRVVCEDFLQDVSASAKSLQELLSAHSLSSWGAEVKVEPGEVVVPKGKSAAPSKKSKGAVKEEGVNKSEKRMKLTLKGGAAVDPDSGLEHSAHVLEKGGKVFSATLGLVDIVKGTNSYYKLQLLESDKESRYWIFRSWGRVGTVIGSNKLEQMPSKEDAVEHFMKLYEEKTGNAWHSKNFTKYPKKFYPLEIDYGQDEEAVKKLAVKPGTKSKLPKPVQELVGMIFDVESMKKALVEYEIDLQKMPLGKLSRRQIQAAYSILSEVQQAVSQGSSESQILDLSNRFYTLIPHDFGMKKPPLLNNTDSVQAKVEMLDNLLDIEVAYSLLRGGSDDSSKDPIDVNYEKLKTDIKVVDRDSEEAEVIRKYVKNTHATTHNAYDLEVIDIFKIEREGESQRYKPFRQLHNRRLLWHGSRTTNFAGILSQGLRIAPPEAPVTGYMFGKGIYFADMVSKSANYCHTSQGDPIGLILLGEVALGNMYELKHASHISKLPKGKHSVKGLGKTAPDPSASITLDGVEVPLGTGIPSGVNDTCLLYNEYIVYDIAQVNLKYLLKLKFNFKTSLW
pIC50: −log10 of the molar value.
Decision: pIC50 compared against 6; not below it gives YES, below it gives NO.

[
  {
    "LINE NOTATION": "CC1(C)C=C(CSc2nc3c(C(N)=O)cccc3[nH]2)CC(C)(C)N1",
    "DISCRETE LABEL": "NO"
  },
  {
    "LINE NOTATION": "CC1(C)NC(C)(C)c2cc(-c3nc4c(C(N)=O)cccc4[nH]3)ncc21",
    "DISCRETE LABEL": "YES"
  },
  {
    "LINE NOTATION": "CC1(C)C(c2nc3c(C(N)=O)cccc3[nH]2)=C(c2cccc3c2oc2ccccc23)C(C)(C)N1O",
    "DISCRETE LABEL": "NO"
  },
  {
    "LINE NOTATION": "CC1(C)C=C(CSc2nc3c(C(N)=O)cccc3[nH]2)C(C)(C)N1",
    "DISCRETE LABEL": "NO"
  },
  {
    "LINE NOTATION": "CC1(C)C(c2cccc(C(F)(F)F)c2)=C(c2nc3c(C(N)=O)cccc3[nH]2)C(C)(C)N1O",
    "DISCRETE LABEL": "YES"
  }
]

[in] Hi, just wondering whether CC1(C)c2cc(-c3nc4c(C(N)=O)cccc4[nH]3)sc2C(C)(C)N1O shows pIC50 of 6 or higher.
[out] NO

[in] Hi, just wondering whether CC1(C)C=C(c2ccc(-c3nc4c(C(N)=O)cccc4[nH]3)cc2)C(C)(C)N1O shows pIC50 of 6 or higher.
[out] YES

[in] Hi, just wondering whether COc1cc(-c2nc3c(C(N)=O)cccc3[nH]2)ccc1OCC1=CC(C)(C)N(O)C1(C)C shows pIC50 of 6 or higher.
[out] YES

[in] Hi, just wondering whether CC1(C)NC(C)(C)c2cc(-c3nc4c(C(N)=O)cccc4[nH]3)ccc21 shows pIC50 of 6 or higher.
[out] YES

[in] Hi, just wondering whether CC1(C)C=C(COc2ccc(-c3nc4c(C(N)=O)cccc4[nH]3)cc2)C(C)(C)N1O shows pIC50 of 6 or higher.
[out] YES

[in] Hi, just wondering whether CC1(C)C=C(CSc2nc3c(C(N)=O)cccc3[nH]2)C(C)(C)N1O shows pIC50 of 6 or higher.
[out] NO

[in] Hi, just wondering whether CC1(C)C(Br)=C(c2nc3c(C(N)=O)cccc3[nH]2)C(C)(C)N1O shows pIC50 of 6 or higher.
[out] YES

[in] Hi, just wondering whether CC1(C)C=C(CSc2nc3c(C(N)=O)cccc3[nH]2)CC(C)(C)N1O shows pIC50 of 6 or higher.
[out] NO

[in] Hi, just wondering whether COC(=O)[C@@H]1[C@@H](c2nc3c(C(N)=O)cccc3[nH]2)C(C)(C)NC1(C)C shows pIC50 of 6 or higher.
[out] YES
